Measured values drawn from patent US20030232009A1 for this set.

Target: T1, Human 20.2 peptide (human)
T1 construct: synthetic peptide from the RB exon
T1 peptide: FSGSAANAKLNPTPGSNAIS
Assay: recombinant antibody on peptide

binder	binding result
AB-CD45RB-XG2-487 (antibody, human IgG2, V domains shown, recombinant human IgG2 kappa; also called sc487) VH: QVQLVESGGGVVQPGRSLRVSCEASGFTFSNYGMHWVRQAPGKGLEWVAVIWYDGSKKFYADSVKGRFTISRDNSQNTLSLQMSSLRAEDTAVYYCARGGGDFDFWGQGTLVTVSS VL: KIVMTQSPATLSVSPGERATLSCRASQSVSGNYLAWYQQRPGQAPRLLIYGASTRATGIPARFSGSGSGTEFTLTISSLQSEDFAVYYCQQYGKWPPLTFGGGTKVEIK	no binding
AB-CD45RB-XG2-416 (antibody, human IgG2, V domains shown, recombinant human IgG2 kappa; also called sc416) VH: QVQLVESGGGVVQPGRSLRLSCAASGFTFSRYGMHWVRQAPGKGLEWVAVIWYDGSNKYYADSVKGRFTISRDNSKNTLYLQVNSLRAEDTAVYYCARGGGSFDYWGQGTLVTVSS VL: DIVMTQTPLSLSVTPGQPASISCKSSQSLLHSDGKTFLYWYLQKPGQPPQLLIYEVSNRFSGVPDRFGGSGSGTDFTLKISRVEAEDVGVYYCMQSIQFPITFGQGTRLEIE	no binding
AB-CD45RB-XG2-556 (antibody, human IgG2, V domains shown, recombinant human IgG2 kappa; also called sc556) VH: QVQLQESGPGLVKPSETLSLTCTVSGGSISGYYWSWIRQPAGKGLEWIGRIHTTGKTAYNPSLKSRVIMSVDTSKNLFSLKLTSVTAADTAVYYCARDYDFLTGYFDYWGQGTLVTVSS VL: DVVMTQSPLSLPVTLGQPASISCRSSQSLVYSDGNTYLNWFQQRPGHSPRRLIYKVSNWDSGVPDRFSGSGSGTDFTLKISRVEAEDVGIYYCMQGTHWPPTFGQGTRVEIK	no binding
